Kindly state protein stability index for each of the entries shown.
B1: VAMP4 (parent)
chain: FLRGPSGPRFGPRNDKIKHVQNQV

Variants of: B1
Assay: protein stability index of a GFP-peptide fusion (GPS, HEK-293T) (PSI 1-6); higher = more stable;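 note: lentivirally expressed fusions sorted by FACS into six bins by GFP to DsRed ratio, PSI derived from sequencing read proportions per bin multiplied by bin number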
Conditions: c terminus: a fixed tail appended
Numbers only.

# RESIDUE_CODES, protein stability index
records = [
    ("FLRGPSGPRFGPRNDKIKHVQNVV", 2.6),
    ("FLRGPLGPRFGPRNDKIKHVQNQV", 1.54),
]

Provide the reported protein stability index of each entry below, same order.
1. FLRGPSDPRFGPRNDKIKHVQNQV
2. FLRGPSGPRWGPRNDKIKHVQNQV
3. FLRMPSGPRFGPRNDKIKHVQNQV
4. FLRGPSGPRFGTRNDKIKHVQNQV

2.44
2.09
2.57
3.37

Provide the reported protein stability index of each entry below, same order.
1. FMRGPSGPRFGPRNDKIKHVQNQV
2. FLRGPSGPGFGPRNDKIKHVQNQV
3. FLRGPSGPFFGPRNDKIKHVQNQV
4. FLRGPSGPRFGPRNDKHKHVQNQV
5. FLRGPSGPRTGPRNDKIKHVQNQV
6. FLRGPSGPRFGPRNDDIKHVQNQV
7. FLFGPSGPRFGPRNDKIKHVQNQV
8. FLRGPSGPRFGPRYDKIKHVQNQV

1. 2.99
2. 2.49
3. 1.9
4. 3.42
5. 3.36
6. 3.13
7. 1.96
8. 2.04

Give the measured protein stability index for `FLRGPSGPMFGPRNDKIKHVQNQV`
2.46
